These entries and their values trace back to a collection of fitness landscapes (doi:10.1126/science.1257360).

B1: PhoQ; a variant is named by its letters at X, in order, P23837 (parent)
chain: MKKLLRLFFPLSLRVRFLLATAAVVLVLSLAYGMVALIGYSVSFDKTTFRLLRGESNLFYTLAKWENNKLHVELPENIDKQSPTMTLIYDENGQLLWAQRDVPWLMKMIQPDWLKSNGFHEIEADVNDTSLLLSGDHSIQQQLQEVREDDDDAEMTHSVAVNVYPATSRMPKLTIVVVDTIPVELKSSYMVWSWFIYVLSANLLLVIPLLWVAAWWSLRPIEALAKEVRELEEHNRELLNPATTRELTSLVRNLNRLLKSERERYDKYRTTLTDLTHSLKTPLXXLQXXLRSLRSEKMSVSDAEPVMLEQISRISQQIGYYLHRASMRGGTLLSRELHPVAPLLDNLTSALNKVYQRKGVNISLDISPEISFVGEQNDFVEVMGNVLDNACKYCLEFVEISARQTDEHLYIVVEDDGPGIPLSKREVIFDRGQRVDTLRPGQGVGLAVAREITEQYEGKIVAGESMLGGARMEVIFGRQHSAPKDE

variants of: B1; test: enrichment ratio after two sorts for PhoP signalling (ratio (wild type AVST 3.29)); higher = more functional; conditions: with PhoP (E. coli)
Over roughly 140,000 sequences, “enrichment ratio after two sorts for PhoP signalling” has its median near 0; the highest 2% begin near 11. Many of the other results were omitted from the sample, so the highest values are more common in it than they were.
REPORTED_PROPERTY: enrichment ratio

As a guide, the following entries are already answered.
- MUTANT_DESIGNATION: "QCLM"
  REPORTED_PROPERTY: "enrichment ratio"
  VALUE_REPORTED: "≤ 0.25"
- MUTANT_DESIGNATION: "ALNL"
  REPORTED_PROPERTY: "enrichment ratio"
  VALUE_REPORTED: 1.07
- MUTANT_DESIGNATION: "ACPN"
  REPORTED_PROPERTY: "enrichment ratio"
  VALUE_REPORTED: "≤ 0.25"
- MUTANT_DESIGNATION: "EFPL"
  REPORTED_PROPERTY: "enrichment ratio"
  VALUE_REPORTED: "≤ 0.25"
- MUTANT_DESIGNATION: "TQQR"
  REPORTED_PROPERTY: "enrichment ratio"
  VALUE_REPORTED: "≤ 0.25"

Query :: Entry `ALQN` : reported enrichment ratio = ?
Result :: ≤ 0.25

Query :: Try this variant next: `ACVN`
Result :: 31.5

Query :: And for `ACGM` ?
Result :: ≤ 0.25

Query :: Please give the result for `IQGR` too.
Result :: ≤ 0.25

Query :: Here is the next variant: `WGFP`
Result :: ≤ 0.25

Query :: Can you handle `QCDG` next?
Result :: ≤ 0.25

Query :: Try this variant next: `TTSM`
Result :: 14.8
